Tested on: K-562 leukemia
Assay: NCI tumour cell line growth inhibition, 48 h
property_measured: TGI

These solved cases illustrate the format of a correct answer.
compound	experimental_system	recorded_measurement
NC(=S)Nc1[nH]c(=S)nc2[nH]ccc12	K-562 leukemia	> 100 µM
CC(CO)CCNc1ncnc2c1ncn2CCC#N (configuration not stated)	K-562 leukemia	> 100 µM
O=C(O)/C=C\C(=O)c1ccc(Cl)cc1	K-562 leukemia	82.8 µM
C=CCNC(=S)/N=C\C(C(=O)OCC)=C(/O)C(=O)OCC	K-562 leukemia	> 100 µM
O=C(O)c1cccc(SSc2cccc(C(=O)O)c2)c1	K-562 leukemia	> 100 µM
Nc1nc(N)c2ncn(-c3ccc(Br)cc3)c2n1	K-562 leukemia	38.3 µM
Cn1c(=O)nc2n(-c3cc(Cl)ccc3Cl)c3ccccc3nc-2c1=O	K-562 leukemia	> 100 µM
C[C@@H](CC(O)C1OC1(C)C)[C@@H]1CC[C@]2(C)C3=CCC4C(C)(C)C(O)CC[C@]4(C)C3CCC12C (some centres not stated)	K-562 leukemia	73.1 µM
CCc1n[nH]c(=O)n1N1C(=O)C2CCCCC2C1=O (configuration not stated)	K-562 leukemia	> 100 µM
NCCNC1=CC(=O)c2nc3ccccc3c3ccnc1c23	K-562 leukemia	> 24.3 µM

# batch: return TGI for each of the 2 compounds below
1. C=C1C(=O)O[C@@H]2[C@@H]3O[C@@H](C[C@@H]13)[C@](C)(O)CC/C=C(\C)CCC[C@H]2C
2. CC(C)(O)[C@@H]1CC[C@](C)(C2[C@@H](O)C[C@@]3(C)C4C[C@H](OC5OCC(O)C(O)C5O)[C@H]5C(C)(C)[C@@H](OC6OCC(O)C(O)C6OC6OCC(O)C(O)C6O)CC[C@@]56C[C@@]46CC[C@]23C)O1 (some centres not stated)

Reply:
1: 4.01 µM; 2: > 100 µM

====

Tested on: NCI/ADR-RES ovarian
Experiment: NCI tumour cell line growth inhibition, 48 h
property_measured: TGI

compound	recorded_measurement
CCOC(=O)CCC(NC(=O)c1ccc(Sc2nc3cc(N)cc(N)c3nc2-c2ccccc2)cc1)C(=O)OCC (stereo not given)	> 100 µM
Nc1nc(N)c2ncn(-c3ccc(Br)cc3)c2n1	50.8 µM
O=C1CSC(c2ccc([N+](=O)[O-])cc2)N1c1nc(-c2ccc3c(c2)CCCC3)cs1 (stereo not given)	> 100 µM
CC(C)N(Cc1c(F)cccc1F)c1ccc(CO)c(Cl)c1	27.9 µM
O=C(c1cccc(F)c1F)N1CCc2c([nH]c3ccccc23)C1c1ccc2c(c1)OCO2 (stereo not given)	53 µM
Cc1ccc2cc3c(cc(C)c4ccccc43)c3c2c1CC3	> 100 µM
COC(=O)c1c(C)c2n(c1C)C(=O)C(c1ccccc1)=C2	> 100 µM
Cn1c(-c2cccc(N)c2)[n+](C)c2ccccc21	> 100 µM
Nc1nc2ccc(NCc3ccc(C(=O)NC(CCC(=O)O)C(=O)O)cc3)cc2c(=O)[nH]1 (stereo not given)	> 100 µM

Query: Hello, please tell me recorded TGI for this one: CCc1n[nH]c(=O)n1N1C(=O)C2CCCCC2C1=O (stereo not given)
Reply: > 100 µM

====

System: MCF7 breast
Experiment: NCI tumour cell line growth inhibition, 48 h; in the data active means GI50 below about 0.43 µM; inactive means the rest
Field 'call' accepts 1 (yes) for active, 0 (no) for inactive

Query: # fetch the recorded call for CC(C)(C)C(=O)OCCNc1nc(-c2ccccc2)nc2ccccc12 here
Reply: 0 (no)

Query: # fetch the recorded call for S=c1ssnc1-c1ccccn1 here
Reply: 0 (no)

From: PubChem BioAssay (NCI)
